These measurements were taken from the supplement of paper PMC11316812.

# Test system: MCF7
# assay-text: percentage of EdU-negative (G0-arrested) nuclei per well, 72 h; higher = more G0 arrest
# test-settings: protein concentration 0.225 µM; reference: sequence is the full UniProt precursor, the tested protein was the secreted form or ectodomain
This listing pairs sequences with measured percentage of EdU-negative.
Write it as a number; the unit % goes unstated.

Sample MGRPRPRAAKTWMFLLLLGGAWAGHSRAQEDKVLGGHECQPHSQPWQAALFQGQQLLCGGVLVGGNWVLTAAHCKKPKYTVRLGDHSLQNKDGPEQEIPVVQSIPHPCYNSSDVEDHNHDLMLLQLRDQASLGSKVKPISLADHCTQPGQKCTVSGWGTVTSPRENFPDTLNCAEVKIFPQKKCEDAYPGQITDGMVCAGSSKGADTCQGDSGGPLVCDGALQGITSWGSDPCGRSDKPGVYTNICRYLDWIKKIIGSKG ; percentage of EdU-negative observed: 24.6

Sample MMPKHCFLGFLISFFLTGVAGTQSTHESLKPQRVQFQSRNFHNILQWQPGRALTGNSSVYFVQYKIMFSCSMKSSHQKPSGCWQHISCNFPGCRTLAKYGQRQWKNKEDCWGTQELSCDLTSETSDIQEPYYGRVRAASAGSYSEWSMTPRFTPWWETKIDPPVMNITQVNGSLLVILHAPNLPYRYQKEKNVSIEDYYELLYRVFIINNSLEKEQKVYEGAHRAVEIEALTPHSSYCVVAEIYQPMLDRRSQRSEERCVEIP [Q969J5] ; percentage of EdU-negative observed: 27.2

###

# Tested on: MCF7;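 note: secreted proteins added to cultured cells, EdU pulse at the end, nuclei found by Hoechst imaging, EdU status from nuclear versus surrounding ring intensity ratio, PBS as neutral control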
# assay-text: percentage of EdU-negative (G0-arrested) nuclei per well, 72 h; higher = more G0 arrest
# test-settings: protein concentration 0.225 µM; reference: sequence is the full UniProt precursor, the tested protein was the secreted form or ectodomain
# label = true if percentage of EdU-negative >= 30% else false

// known answers, use as guide
query-sequence	label
MAEGNTLISVDYEIFGKVQGVFFRKHTQAEGKKLGLVGWVQNTDRGTVQGQLQGPISKVRHMQEWLETRGSPKSHIDKANFNNEKVILKLDYSDFQIVK [G3V2U7]	false
MGSGRRALSAVPAVLLVLTLPGLPVWAQNDTEPIVLEGKCLVVCDSNPATDSKGSSSSPLGISVRAANSKVAFSAVRSTNHEPSEMSNKTRIIYFDQILVNVGNFFTLESVFVAPRKGIYSFSFHVIKVYQSQTIQVNLMLNGKPVISAFAGDKDVTREAATNGVLLYLDKEDKVYLKLEKGNLVGGWQYSTFSGFLVFPL [Q9NTU7]	false
MQLPLALCLVCLLVHTAFRVVEGQGWQAFKNDATEIIPELGEYPEPPPELENNKTMNRAENGGRPPHHPFETKDVSEYSCRELHFTRYVTDGPCRSAKPVTELVCSGQCGPARLLPNAIGRGKWWRPSGPDFRCIPDRYRAQRVQLLCPGGEAPRARKVRLVASCKCKRLTRFHNQSELKDFGTEAARPQKGRKPRPRARSAKANQAELENAY [Q9BQB4]	true
MSPSPTALFCLGLCLGRVPAQSGPLPKPSLQALPSSLVPLEKPVTLRCQGPPGVDLYRLEKLSSSRYQDQAVLFIPAMKRSLAGRYRCSYQNGSLWSLPSDQLELVATGVFAKPSLSAQPGPAVSSGGDVTLQCQTRYGFDQFALYKEGDPAPYKNPERWYRASFPIITVTAAHSGTYRCYSFSSRDPYLWSAPSDPLELVVTGTSVTPSRLPTEPPSPVAEFSEATAELTVSFTNEVFTTETSRSITASPKESDSPAGPARQYYTKGNLVRICLGAVILIILAGFLAEDWHSRRKRLRHRGRAVQRPLPPLPPLPLTRKSNGGQDGGRQDVHSRGLCS [Q9HCN6]	false

Is it the case that MKGFTATLFLWTLIFPSCSGGGGGKAWPTHVVCSDSGLEVLYQSCDPLQDFGFSVEKCSKQLKSNINIRFGIILREDIKELFLDLALMSQGSSVLNFSYPICEAALPKFSFCGRRKGEQIYYAGPVNNPEFTIPQGEYQVLLELYTEKRSTVACANATIMCS has percentage of EdU-negative reaching or exceeding 30%?
false

Is it the case that MLLLVTSLLLCELPHPAFLLIPEKSDLRTVAPASSLNVRFDSRTMNLSWDCQENTTFSKCFLTDKKNRVVEPRLSNNECSCTFREICLHEGVTFEVHVNTSQRGFQQKLLYPNSGREGTAAQNFSCFIYNADLMNCTWARGPTAPRDVQYFLYIRNSKRRREIRCPYYIQDSGTHVGCHLDNLSGLTSRNYFLVNGTSREIGIQFFDSLLDTKKIERFNPPSNVTVRCNTTHCLVRWKQPRTYQKLSYLDFQYQLDVHRKNTQPGTENLLINVSGDLENRYNFPSSEPRAKHSVKIRAADVRILNWSSWSEAIEFGSDDGNLGSVYIYVLLIVGTLVCGIVLGFLFKRFLRIQRLFPPVPQIKDKLNDNHEVEDEIIWEEFTPEEGKGYREEVLTVKEIT has percentage of EdU-negative reaching or exceeding 30%?
false
